Taken from patent US10363239B2.

- Test system: mu opiate receptor (MOR)
- Method summary: MOR agonist activity using [35S]GTPγS binding assay in striatal membranes
- Assay type: biochemical
- Protocol conditions: Series C-1; 1 μM compound + β-FNA, relative to DAMGO + BFNA
Measured % DAMGO + BFNA, listed per entry.
# unit: % | format: bare number

Observe how each entry below is paired with its result.
molecule="CS(=O)(=O)c1ccc(S(=O)(=O)N2CCC3(CC2)OCCN3S(=O)(=O)c2ccc(S(C)(=O)=O)cc2)cc1 [Compound C0009]" result=41.2
molecule="CCCCc1ccc(S(=O)(=O)N2CCC3(CC2)OCCN3S(=O)(=O)c2ccc(CCCC)cc2)cc1 [Compound C0030]" result=291.4
molecule="COc1ccc(NC(=O)N2CCC3(CC2)OCCN3C(=O)Nc2ccc(OC)cc2)cc1 [Compound C0151M]" result=233.1

Then this molecule:
Request: Name the reported % DAMGO + BFNA value associated with the molecule O=S(=O)(c1ccc(F)cc1)N1CCC2(CC1)OCCN2S(=O)(=O)c1ccc(F)cc1 [Compound C0029]
Response: 37.8

----------
- Tgt: FLNA pentapeptide of SEQ ID NO: 1 (Bn-VAKGL) (Homo sapiens)
- Method summary: FITC-NLX-based FLNA screening assay (inhibition of FITC-naloxone binding to Bn-VAKGL on streptavidin plates)
- Protocol conditions: read-out: Percent Binding Inhibition, FLNA-binding compound 0.01 μM; 10 nM FITC-NLX
# binarize inhibition at 0.01 µM: threshold 40% inclusive, high side Condition met, low side Condition not met

Example results:
molecule="O=S(=O)(c1ccccc1)N1CCC2(CC1)OCCN2S(=O)(=O)c1ccccc1 [Compound C0016]" class="Condition not met"
molecule="COc1cccc(CCC(=O)CC2c3c(cc4c(c3OC)OCO4)CC[N+]2(C)C)c1 (centres unmarked) [Compound B0034]" class="Condition met"
molecule="COc1ccc(S(=O)(=O)N2CCOC23CCN(CC2CC2)CC3)cc1 [Compound C0090M]" class="Condition met"
molecule="COc1cccc(CC(=O)CC2c3c(cc4c(c3OC)OCO4)CC[N+]2(C)C)c1OC (centres unmarked) [Compound B0038]" class="Condition met"
molecule="COc1cc(C(=O)CC2c3c(cc4c(c3OC)OCO4)CC[N+]2(C)C)cc(OC)c1OC (centres unmarked) [Compound B0037]" class="Condition met"

Request: Is inhibition at 0.01 µM for CC(=O)c1ccc(C(=O)N2CCC3(CC2)OCCN3S(=O)(=O)c2ccc(C(C)=O)cc2)cc1 [Compound C0052] at or above 40%?
Response: Condition not met

Request: Does the reported inhibition at 0.01 µM for CC(=O)c1ccc(S(=O)(=O)N2CCC3(CC2)OC(CN(C)C)CN3S(=O)(=O)c2ccc(C(C)=O)cc2)cc1 (centres unmarked) [Compound C0065] fall at or above the 40% mark?
Response: Condition not met

----------
- System: mu opiate receptor (MOR)
- Method summary: MOR agonist activity using [35S]GTPγS binding assay in striatal membranes
- Format: biochemical
- Protocol conditions: Series C-2; 1 μM compound, relative to DAMGO
Observable: % DAMGO (1 μM) (%)
The answer is to be given in %; state only the numeric part.

compound=CC(=O)c1ccc(S(=O)(=O)N2CCC3(CC2)OCCN3S(=O)(=O)c2ccc(C(C)=O)cc2)cc1 result=114.3
compound=CC(=O)c1ccc(S(=O)(=O)N2CCC3(CC2)OCCN3S(C)(=O)=O)cc1 result=83.0
compound="CS(=O)(=O)c1ccc(S(=O)(=O)N2CCOC23CCNCC3)cc1 [Compound C0116M]" result=122.0
compound="O=C1CNC2(CCNCC2)N1Cc1ccccc1 [Compound C0114M]" result=71.4

Request: Param item = O=[N+]([O-])c1ccc(S(=O)(=O)N2CCC3(CC2)NCCS3)cc1 ; retrieve measured % DAMGO (1 μM).
Response: 128.0

Request: Look at this compound and give its reported % DAMGO (1 μM). CC(=O)c1ccc(S(=O)(=O)N2CCC3(CC2)NC(=O)CO3)cc1 [Compound C0087M]
Response: 132.8

Request: I would be grateful if you could share the reported % DAMGO (1 μM) for CN1CCC2(CC1)OCCN2S(=O)(=O)c1ccc(S(C)(=O)=O)cc1 [Compound C0106M] .
Response: 108.3

Request: Give the measured % DAMGO (1 μM) of O=[N+]([O-])c1ccc(S(=O)(=O)N2CCC3(CC2)NCCO3)cc1 .
Response: 133.2

Request: Fill in the blank: the reported % DAMGO (1 μM) of Cc1ccc(S(=O)(=O)N2CCOC23CCN(CC2CC2)CC3)cc1 [Compound C0134M] is ____.
Response: 93.3
